test: Tested for capacity factors by reversed phase HPLC (C18, solvent system 1)
We begin with a simple list: items and their reported k'.

{"columns": ["structure", "k'"],
 "data": [
  ["CC(C)C[C@@H]1CN[C@@H](CC2CCCCC2)C(=O)N[C@H](CCC(N)=O)C(=O)N[C@@H](Cc2c[nH]c3ccccc23)C(=O)N[C@H](Cc2ccccc2)C(=O)NCCC(=O)N1", 11.6],
  ["CC(C)C[C@@H]1CN[C@@H](CCC(=O)NCc2ccccc2)C(=O)N[C@H](CCC(N)=O)C(=O)N[C@@H](Cc2c[nH]c3ccccc23)C(=O)N[C@H](Cc2ccccc2)C(=O)NCCC(=O)N1", 11.1],
  ["CC(C)C[C@@H]1CN[C@@H](CC(C)C)C(=O)N[C@H](CCC(N)=O)C(=O)N[C@@H](Cc2c[nH]c3ccccc23)C(=O)N[C@H](Cc2ccccc2)C(=O)NCCC(=O)N1", 9.9],
  ["CC(C)C[C@@H]1CN[C@@H](CCCCN)C(=O)N[C@H](CCC(N)=O)C(=O)N[C@@H](Cc2c[nH]c3ccccc23)C(=O)N[C@H](Cc2ccccc2)C(=O)NCCC(=O)N1", 6.8],
  ["CC(C)C[C@@H]1CN[C@@H](CCCCNC(=O)OCc2ccccc2)C(=O)N[C@H](CCC(N)=O)C(=O)N[C@@H](Cc2c[nH]c3ccccc23)C(=O)N[C@H](Cc2ccccc2)C(=O)NCCC(=O)N1", 11.9],
  ["CC(C)C[C@@H]1CN[C@@H](Cc2ccccc2)C(=O)N[C@H](CCC(N)=O)C(=O)N[C@@H](Cc2c[nH]c3ccccc23)C(=O)N[C@H](Cc2ccccc2)C(=O)NCCC(=O)N1", 10.5],
  ["CC(C)C[C@@H]1CN[C@@H](CC(N)=O)C(=O)N[C@H](CCC(N)=O)C(=O)N[C@@H](Cc2c[nH]c3ccccc23)C(=O)N[C@H](Cc2ccccc2)C(=O)NCCC(=O)N1", 7.7],
  ["CC(C)C[C@@H]1CN[C@@H](CC(=O)O)C(=O)N[C@H](CCC(N)=O)C(=O)N[C@@H](Cc2c[nH]c3ccccc23)C(=O)N[C@H](Cc2ccccc2)C(=O)NCCC(=O)N1", 7.9],
  ["CC(C)C[C@@H]1CN(C)[C@@H](CC2CCCCC2)C(=O)N[C@H](CCC(N)=O)C(=O)N[C@@H](Cc2c[nH]c3ccccc23)C(=O)N[C@H](Cc2ccccc2)C(=O)NCCC(=O)N1", 13.1],
  ["CC(C)C[C@@H]1CN[C@@H](Cc2ccc3ccccc3c2)C(=O)N[C@H](CCC(N)=O)C(=O)N[C@@H](Cc2c[nH]c3ccccc23)C(=O)N[C@H](Cc2ccccc2)C(=O)NCCC(=O)N1", 12],
  ["CSCC[C@@H]1NC[C@@H](CC(C)C)NC(=O)CCNC(=O)[C@@H](Cc2ccccc2)NC(=O)[C@H](Cc2c[nH]c3ccccc23)NC(=O)[C@@H](CCC(N)=O)NC1=O", 9.6]
]}

----------
target: Substance-K receptor (Mesocricetus auratus); test: Tested for antagonist activity at NK-2 tachykinin receptors in hamster trachea; type: functional; settings: read-out: pA2 (converted)
Sequence (P51144 whole entry): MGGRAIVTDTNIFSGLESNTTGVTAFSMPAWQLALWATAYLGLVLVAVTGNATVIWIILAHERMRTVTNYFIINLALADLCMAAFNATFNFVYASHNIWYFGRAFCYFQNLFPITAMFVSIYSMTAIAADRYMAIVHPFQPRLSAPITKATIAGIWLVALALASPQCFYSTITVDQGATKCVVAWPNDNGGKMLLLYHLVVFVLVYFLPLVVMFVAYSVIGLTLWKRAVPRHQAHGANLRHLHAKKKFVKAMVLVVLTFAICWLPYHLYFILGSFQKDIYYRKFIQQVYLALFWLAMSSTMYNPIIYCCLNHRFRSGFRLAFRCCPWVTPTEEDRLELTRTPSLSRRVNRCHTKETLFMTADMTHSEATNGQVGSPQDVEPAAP
Where a SMILES comes first, the peptide text is derived from it. [ ]: non-standard residue; d: D form. Cha = N[C@@H](CC1CCCCC1)C(=O)O; βAla = NCCC(=O)O
# y = Kb below 30 nM (exclusive); n = Kb at/above 30 nM

{"columns": ["molecule", "category"],
 "data": [
  ["CC(C)C[C@@H]1CN[C@@H](CC2CCCCC2)C(=O)N[C@@H](CCC(N)=O)C(=O)N[C@@H](Cc2c[nH]c3ccccc23)C(=O)N[C@@H](Cc2ccccc2)C(=O)NCCC(=O)N1", "y"],
  ["CC(C)C[C@@H]1CN[C@@H](CCCCN)C(=O)N[C@@H](CCC(N)=O)C(=O)N[C@@H](Cc2c[nH]c3ccccc23)C(=O)N[C@@H](Cc2ccccc2)C(=O)NCCC(=O)N1", "n"],
  ["CC(C)C[C@@H]1CN[C@@H](CC(N)=O)C(=O)N[C@@H](CCC(N)=O)C(=O)N[C@@H](Cc2c[nH]c3ccccc23)C(=O)N[C@@H](Cc2ccccc2)C(=O)NCCC(=O)N1", "n"],
  ["CC(C)C[C@@H]1CN[C@@H](CCC(=O)NCc2ccccc2)C(=O)N[C@@H](CCC(N)=O)C(=O)N[C@@H](Cc2c[nH]c3ccccc23)C(=O)N[C@@H](Cc2ccccc2)C(=O)NCCC(=O)N1", "y"],
  ["CC(C)C[C@@H]1NC(=O)CCNC(=O)[C@H](Cc2ccccc2)NC(=O)[C@H](Cc2c[nH]c3ccccc23)NC(=O)[C@H](CCC(N)=O)NC(=O)[C@H](CC2CCCCC2)NC1=O (cyclo([Cha]QWF[βAla]L))", "n"]
]}
